B1: RIPK4 (parent)
chain: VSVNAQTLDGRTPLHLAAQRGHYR

- Variants of: B1
- experiment_summary: protein stability index of a GFP-peptide fusion (GPS, HEK-293T) (PSI 1-6); higher = more stable;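 further: lentivirally expressed fusions sorted by FACS into six bins by GFP to DsRed ratio, PSI derived from sequencing read proportions per bin multiplied by bin number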
- test_context: c terminus: a fixed tail appended
Rule: protein stability index of 3 or more gives 1 (yes); anything lower gives 0 (no).

Input: Threshold query (protein stability index >= 3) on VSVNIQTLDGRTPLHLAAQRGHYR
Output: 0 (no)

Input: Threshold query (protein stability index >= 3) on DSVNAQTLDGRTPLHLAAQRGHYR
Output: 1 (yes)

Data provenance is the supplement of paper PMC10567573.
